Values were extracted from PubChem BioAssay AID1645868.

# measured.target: OTU domain-containing protein 3 (Homo sapiens)
# assay.explanation: Validation of screening hits, potency titration, in vitro enzymatic, OTU domain-containing protein 3 DUB inhibitors (AID 1645868)
# assay.conditions: purified OTUD3, ubiquitin-rhodamine cleavage fluorescence, 2 h
Activity calls are given as the source filed them.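 How the source made its calls: active means maximal percent inhibition of the deubiquitinase OTUD3 of at least 30% across the tested doses; inactive means the rest.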
readout.name: IC50

If you can, please state the reported IC50 value of CC(=O)Nc1ccc(-n2cnc(C(=O)NC(C)c3ccccc3)c2)nc1 (stereo unspecified) .
> 50 µM (inactive)

IC50 lookup needed for CC(C)c1cc(NCc2ccccc2)n2nc(-c3cccnc3)nc2n1 , thanks.
25.4 µM

Please report the recorded IC50 for CSc1nc2ncn(CC(=O)Nc3cccc(Cl)c3)c(=O)c2s1 .
> 50 µM (inactive)

Give its IC50 value. Item: CCCC(=O)Nc1nc2ccc(CCC(=O)NCc3ccc(F)cc3)cc2s1
35.6 µM

Could you share which IC50 value was measured for CCn1cc(-c2nc(-c3ccccn3)no2)c(=O)c2cc(F)ccc21 ?
> 50 µM (inactive)

I'd like to know its IC50. The molecule in question is Cc1ccc(Cn2cc(-c3noc(-c4ccc[nH]4)n3)nn2)cc1
19.8 µM

Fill in the blank: the reported IC50 of CCCc1cc(=O)oc2cc(OCC(=O)NCc3ccc(OC)cc3)ccc12 is ____.
36.2 µM

What value of IC50 has been recorded for this entry: O=C(Nc1ccc2c(c1)OCCO2)c1cc(CN2CCOCC2)on1
> 50 µM (inactive)

Can you look up the measured IC50 of Clc1cccc(N2CCN(c3ncnc4nc[nH]c34)CC2)c1 for me?
> 50 µM (inactive)

Given the entry CN1CCN(c2ncnc3c2oc2ccc(Cl)cc23)CC1 , report its measured IC50.
> 50 µM (inactive)

Requested read-out: IC50. Entry: O=C(Nc1ccc(F)c(Cl)c1)c1ccc(N2CCCCS2(=O)=O)cc1Cl
> 50 µM (inactive)

* * *

# measured.target: OTU domain-containing protein 3 (Homo sapiens)
# assay.explanation: Validation of screening hits, potency titration, in vitro enzymatic, OTU domain-containing protein 3 DUB inhibitors (AID 1645868)
# assay.conditions: purified OTUD3, ubiquitin-rhodamine cleavage fluorescence, 2 h
The source made the active and inactive calls.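 Rule for the calls: active = maximal percent inhibition of the deubiquitinase OTUD3 of at least 30% across the tested doses; inactive = the rest.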
Outcomes you can answer with include only these: t = active, f = inactive

GET /call?item= c1coc(CNc2nc3ccccc3n3nnnc23)c1 returns the recorded outcome of this test.
f

Test call for this molecule, please: NS(=O)(=O)c1ccc(CNS(=O)(=O)c2ccc(-c3ccccn3)s2)cc1
t

Hi, sorry to bother you, what did the test record for CC(C)N1CC2CN(Cc3ccc(Cl)cc3)CCN2Cc2ccccc21 (stereo not given) ?
f

Write down the call the test reported for this molecule. Item: COCCCNC(=O)c1ccc(Cn2c(=O)c3ccccc3n(CC(=O)NC3CCCCC3)c2=O)cc1
t

Record request — test call for O=C(Nc1ccc2c(c1)OCO2)c1[nH]nc2c1CCc1ccccc1-2
f

What call does the record list for Cc1ccccc1NC(=O)C(C)n1c(=O)cc(-c2ccccc2)c2c(C)nn(C)c21 (stereo not given) ?
t

Status in this test for O=C(Nc1ccccc1)c1nc2c(s1)CCN(C(=O)c1ccccc1)CC2 ?
f

GET /call?item= CCCc1nc2sc3c(NCc4ccco4)ncnc3c2c2c1CCC2 returns the recorded outcome of this test.
f

Per the assay record, what outcome was assigned to COc1ccc(NC(=O)CN2CCN(c3ccc(C(C)=O)cc3)CC2)cc1S(=O)(=O)N1CCCCC1 ?
f

Assay outcome for COc1ccc(-c2cc(-c3ccc(O)cc3)nc(N)c2C#N)cc1OC : what was it?
f

* * *

# measured.target: OTU domain-containing protein 3 (Homo sapiens) (UniProt Q5T2D3)
# Sequence (Q5T2D3 whole entry, looked up, the tested form may be a part): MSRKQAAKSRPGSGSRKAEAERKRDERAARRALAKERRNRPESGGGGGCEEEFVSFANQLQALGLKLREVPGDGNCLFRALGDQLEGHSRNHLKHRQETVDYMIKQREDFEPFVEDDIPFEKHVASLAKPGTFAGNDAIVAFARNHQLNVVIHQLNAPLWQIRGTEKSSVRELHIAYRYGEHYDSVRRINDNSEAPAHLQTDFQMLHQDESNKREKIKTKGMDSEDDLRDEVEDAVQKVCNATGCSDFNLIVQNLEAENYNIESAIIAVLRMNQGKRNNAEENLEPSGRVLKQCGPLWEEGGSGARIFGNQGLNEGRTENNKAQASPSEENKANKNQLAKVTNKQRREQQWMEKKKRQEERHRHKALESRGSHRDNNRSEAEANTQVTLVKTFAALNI
# assay.explanation: Validation of screening hits, potency titration, in vitro enzymatic, OTU domain-containing protein 3 DUB inhibitors (AID 1645868)
# assay.conditions: purified OTUD3, ubiquitin-rhodamine cleavage fluorescence, 2 h
The source made the active and inactive calls.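 How the source made its calls: active means maximal percent inhibition of the deubiquitinase OTUD3 of at least 30% across the tested doses; inactive means the rest.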
// one of true (1) (active), false (0) (inactive), no free text

Returns: the outcome recorded for CC1=C2C(=NCCN1)C(=O)N(c1ccccc1)C2c1cccnc1 (centres undefined) in this assay.
false (0)

Outcome logged for O=C(c1ccc(N2CCc3ccccc32)nn1)N1CCc2ccccc21 in this assay:
false (0)

Would you mind telling me which call this test gave CCn1c(=O)c(=O)[nH]c2cc(C(=O)Nc3cccc(-c4csc(C)n4)c3)ccc21 ?
false (0)

Fill in: this test's call for O=C(NCc1ccccc1)c1ccc2c(=O)n(-c3ccccc3)c(=O)[nH]c2c1 is ___
true (1)

# fetch the recorded call for O=C(COc1ccc2c(-c3ccccc3)cc(=O)oc2c1)Nc1cccnc1 here
true (1)

For C=C1CCC2[C@](C)(CCC[C@]2(C)C(=O)OC)[C@H]1CCc1ccoc1C[N+](C)(C)Cc1ccccc1 (some centres undefined) , what call appears in the results of this test?
false (0)

Short answer needed: outcome of this test for Cc1cc(NC(=O)c2cc(-c3cccnc3)n[nH]2)ccc1Br ?
true (1)

Recorded test call requested for CCOc1ccc(NC(=O)c2nc3c(=O)[nH]c4cc(C)ccc4n3n2)cc1
false (0)

Recorded test call requested for CC1(C)C[C@@H](O)[C@]2(C)CC[C@]3(C)C(=CCC4[C@@]5(C)CC[C@H](O)[C@](C)(CO)[C@@H]5CC[C@]43C)[C@@H]2C1 (some centres undefined)
false (0)

* * *

# measured.target: OTU domain-containing protein 3 (Homo sapiens) (UniProt Q5T2D3)
# assay.explanation: Validation of screening hits, potency titration, in vitro enzymatic, OTU domain-containing protein 3 DUB inhibitors (AID 1645868)
# assay.conditions: purified OTUD3, ubiquitin-rhodamine cleavage fluorescence, 2 h
Activity calls are given as the source filed them.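 How the source made its calls: active means maximal percent inhibition of the deubiquitinase OTUD3 of at least 30% across the tested doses; inactive means the rest.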
Outcomes you can answer with include only these: active, inactive

What call does the record list for Cc1cc(/C=C2/C(=N)N3C(c4ccccc4)=CSC3=NC2=O)c(C)n1-c1ccc2ccccc2c1 ?
inactive

Call for entry Cc1ccc2c(c1C)NC(=O)[C@]21[C@@H]2C(=O)N(c3cc(Cl)ccc3Cl)C(=O)[C@@H]2[C@@H]2CCCN21 :
inactive

Assay outcome for Cc1ccc2cc3c(nc2n1)CCN(Cc1ccc(F)cc1)C3 : what was it?
inactive

Could you please tell me the result logged for COc1ccc(OC)c(NC(=O)CS(=O)(=O)c2cn(CC(=O)N3CCC(C)CC3)c3ccccc23)c1 in this assay?
active

Please let me know the test result on file for CCCCCn1c(Sc2ccc(C)cc2)nc2c1c(=O)[nH]c(=O)n2C .
active

// param item: O=C(c1ccco1)N1CCCC2(C1)Nc1cccnc1NC2=NC1CCCC1 (stereo not given) ; yields the recorded call
inactive

Call for entry CC1CCc2c(sc3ncnc(NC4CCN(CC(N)=O)CC4)c23)C1 (stereo not given) :
inactive

Call for entry COc1cccc2c1C(=O)c1ccc3c(c1C2=O)C(=O)CC(C)(O)C3 (stereo not given) :
inactive

How was Cc1c(-c2nnc(-c3ccccc3Cl)o2)nnn1-c1ccccc1 classified in this test?
inactive

Fill in: this test's call for Oc1ccc(Br)cc1CNc1ccc(F)cc1 is ___
inactive

// return assay outcome for COc1ccc(N2C(=O)[C@@H]3[C@H]4c5ccccc5C=CN4C(C(=O)Nc4ccc5c(c4)OCO5)[C@@H]3C2=O)cc1 (stereo not given in full)
inactive

Record lookup: outcome of this test for COc1ccc(-c2cc(-c3nnc4n3CCCCC4)n(-c3ccccc3)n2)cc1 ?
inactive

Hi team, can someone confirm the assay call for O=C(CCc1nnc2n(Cc3ccccc3Cl)c(=O)c3ccccc3n12)NCc1ccccn1 ?
inactive

# fetch the recorded call for Nc1c(C(=O)NCc2ccc3c(c2)OCO3)nnn1Cc1ccc(Br)cc1F here
active

Given COc1ccc(NC(=O)C2CC(=O)Nc3c(-c4ccc(Cl)cc4)cnn32)c(OC)c1 (stereo not given) , state the outcome it received in this test.
active

Hi, sorry to bother you, what did the test record for CCOC(=O)[C@@H]1[C@@H](c2ccccc2)CN2CCN(C(=O)c3cnccn3)C[C@H]12 ?
inactive

Call for entry Cc1cccc(-n2nc(C)c3c2NC(=O)CC3C(=O)c2cc3ccccc3o2)c1 (stereo not given) :
active

For COc1ccccc1NC(=O)CNC(=O)c1nn(-c2ccc(OC)c(OC)c2)c(=O)c2ccccc12 , which call appears in the assay record?
active

Dear colleague, could you share the recorded outcome for O=C(NCc1cccnc1)C1CCN(c2cnc(N3CCCCCC3)nc2)CC1 when you have a moment?
inactive

Please state the recorded outcome for this compound: Cc1ccc(NC(=O)Cc2nnc3c(-c4nc(C5CC5)no4)cccn23)cc1
active

* * *

# measured.target: OTU domain-containing protein 3 (Homo sapiens)
# assay.explanation: Validation of screening hits, potency titration, in vitro enzymatic, OTU domain-containing protein 3 DUB inhibitors (AID 1645868)
# assay.conditions: purified OTUD3, ubiquitin-rhodamine cleavage fluorescence, 2 h
The source made the active and inactive calls.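 Rule for the calls: active = maximal percent inhibition of the deubiquitinase OTUD3 of at least 30% across the tested doses; inactive = the rest.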
Classes to choose from: active, inactive

What classification did O=c1c(-c2nc(C3CC3)no2)cccn1Cc1c(F)cccc1Cl end up with in this test?
inactive

Each compound tested received a call. Report the one for O=C(CSc1nc2ccncc2[nH]1)Nc1ccc(Br)cc1F .
active

Dear all, I need the recorded test outcome for O=C(Cn1c(=O)n(Cc2ccc(F)cc2)c(=O)c2ncccc21)Nc1ccccc1 , thank you.
inactive

// outcome(item) with item = Cc1ccc(-c2csc(-n3ncc(C(=O)N4CCN(C(=O)Nc5cccc6ccccc56)C(C)C4)c3C(C)C)n2)cc1 (stereo not given)
inactive

Outcome? Cc1ccc(Cl)cc1NC(=O)c1cc(-c2ccccn2)n[nH]1
active
